This collection of values is drawn from ChEMBL document CHEMBL4610000.

- systemTested: Muscarinic acetylcholine receptor M4 (Homo sapiens)
- Sequence (P08173 whole entry): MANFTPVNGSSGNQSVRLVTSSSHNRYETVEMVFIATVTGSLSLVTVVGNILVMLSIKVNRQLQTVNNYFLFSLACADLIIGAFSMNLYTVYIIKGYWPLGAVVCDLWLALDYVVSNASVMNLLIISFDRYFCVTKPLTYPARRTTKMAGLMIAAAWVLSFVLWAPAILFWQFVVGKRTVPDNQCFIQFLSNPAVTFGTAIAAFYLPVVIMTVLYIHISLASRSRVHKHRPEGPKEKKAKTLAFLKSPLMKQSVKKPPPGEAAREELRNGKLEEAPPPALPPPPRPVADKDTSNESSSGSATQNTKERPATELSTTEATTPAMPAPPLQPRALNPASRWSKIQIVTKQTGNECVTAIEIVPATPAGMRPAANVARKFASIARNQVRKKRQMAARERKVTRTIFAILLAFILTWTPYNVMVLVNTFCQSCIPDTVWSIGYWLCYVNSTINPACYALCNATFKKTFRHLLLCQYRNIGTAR
- experimentSummary: Positive allosteric modulation of human muscarinic M4 receptor expressed in CHO cells co-expressing Gqi5 assessed as increase in acetylcholine-induced calcium mobilization
measuredProperty: EC50 (nM)

Would you please look over these solved cases?
smilesNotation: Cn1nnc2ccc3c(NC4CCCC4)ncnc3c21
displayUnit: nM
EC50: 820

smilesNotation: [2H]C([2H])(Nc1ncnc2c1ccc1nn(C)c(C)c12)c1ccc(C(C)(C)O)cc1
displayUnit: nM
EC50: 886

smilesNotation: Cc1c2c(ccc3c(NC4CCCC4)ncnc32)nn1C
displayUnit: nM
EC50: 848

(P) Cc1c2c(ccc3c(NCc4ccc(C(=O)NCC(C)(C)C)cc4)ncnc32)nn1C
(Q) Cc1c2c(ccc3c(NCc4ccc(F)c(F)c4)ncnc32)nn1C
Q) Kindly compare P with Q and tell me which has the lower EC50 figure. Reply briefly: the label of your chosen item.
A) P
